Data origin: the supplement of paper PMC12042874

Assay: amyloid nucleation score (Sup35N fusion, yeast selection) (log enrichment); library NNK2; higher = more nucleation; inactive = no reads after selection;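 also: zero at mode of non-aggregating sequences after 7 days selection at 30°C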
attribute_measured: amyloid nucleation score
Keep it simple and answer with nothing but the number.

Some substances with recorded amyloid nucleation score:
              substance        attribute_measured  observed
0  TITPKSSICNPLRDNSYSVV  amyloid nucleation score     0.136
1           ILTWVAHILLP  amyloid nucleation score      3.72

Prompt line: Entry under review: CVGGVSNCMRYGKTFRDESY . Reported amyloid nucleation score?
Response line: -0.438

Prompt line: Entry under review: GLPRMRSRYTYRGKYVCMCM . Reported amyloid nucleation score?
Response line: 1.12

Prompt line: Entry under review: ILSLIYGA . Reported amyloid nucleation score?
Response line: -0.084

Prompt line: Entry under review: VLSPQVKRSHTFLGNDLRTD . Reported amyloid nucleation score?
Response line: 4.64

Prompt line: Entry under review: RRVGLSGRTKMSG . Reported amyloid nucleation score?
Response line: 0.048

Prompt line: Entry under review: HRMRVSIGATYVTALYQVKD . Reported amyloid nucleation score?
Response line: 3.18

Prompt line: Entry under review: PKNMWGSNNLRGMPVSDVKS . Reported amyloid nucleation score?
Response line: 0.032

Prompt line: Entry under review: ILLISVCYRNIVYISSSLMG . Reported amyloid nucleation score?
Response line: -0.172

Prompt line: Entry under review: VTRFLISYTRIGRMYSVGFV . Reported amyloid nucleation score?
Response line: -0.523

Prompt line: Entry under review: VFGSEVSNIRRESWRSLIGQ . Reported amyloid nucleation score?
Response line: 0.756

Prompt line: Entry under review: EDELSPF . Reported amyloid nucleation score?
Response line: 0.453

Prompt line: Entry under review: SMYVINRSI . Reported amyloid nucleation score?
Response line: -0.198

Prompt line: Entry under review: IVHILYECGAFRLPRGLY . Reported amyloid nucleation score?
Response line: -0.538

Prompt line: Entry under review: WFNCEWEDEFIEGQRVVMTV . Reported amyloid nucleation score?
Response line: 1.44

Prompt line: Entry under review: LFRSHSCVCTLVKQ . Reported amyloid nucleation score?
Response line: -0.008

Prompt line: Entry under review: RFYTVSRSRLSGMSMYLCRV . Reported amyloid nucleation score?
Response line: -0.294

Prompt line: Entry under review: TYVLAIGLFWRYPF . Reported amyloid nucleation score?
Response line: 3.22

----------
Experiment: amyloid nucleation score (Sup35N fusion, yeast selection) (log enrichment); library NNK2; higher = more nucleation; inactive = no reads after selection
Listing of entries alongside the reported amyloid nucleation score.
Keep it simple and answer with nothing but the number.

Some substances with recorded amyloid nucleation score:
              substance  observed
0  FFGYAGCNRPVNLSYGGRFN    -0.952
1  LVLYVSKMPYMSEPRSIILR      0.64
2               ARTKVIY     -1.34

Prompt line: Entry under review: LVLAASTFQYSGRGYASDML . Reported amyloid nucleation score?
Response line: 1.49

Prompt line: Entry under review: FNHLRSARILPGFFSFSRFK . Reported amyloid nucleation score?
Response line: -1.35

----------
Assay: amyloid nucleation score (Sup35N fusion, yeast selection) (log enrichment); library NNK1; higher = more nucleation; inactive = no reads after selection
Listing of entries alongside the reported amyloid nucleation score.
Keep it simple and answer with nothing but the number.

In [3]: df
Out[3]:
              substance  observed
0  HYVFRHAWDSSFDVNVGLAQ     0.564
1               MTKFCID     0.965
2  FFDYGDAWSFHRMNNWDVLY    -0.935

Prompt line: Entry under review: HMVHGMFY . Reported amyloid nucleation score?
Response line: -0.251

Prompt line: Entry under review: FMKSKAAAYS . Reported amyloid nucleation score?
Response line: -0.247

Prompt line: Entry under review: LWPFKSFGLVPCTV . Reported amyloid nucleation score?
Response line: -0.572

Prompt line: Entry under review: FYVPDWYNCSCIIWGRDACA . Reported amyloid nucleation score?
Response line: 4.19

Prompt line: Entry under review: RLVTYPSVLSSVSEGSGRGG . Reported amyloid nucleation score?
Response line: 1.05

Prompt line: Entry under review: GIMTHVGRPKVTGCGRGKCT . Reported amyloid nucleation score?
Response line: -0.165

----------
Test: amyloid nucleation score (Sup35N fusion, yeast selection) (log enrichment); library NNK2; higher = more nucleation; inactive = no reads after selection
Listing of entries alongside the reported amyloid nucleation score.
Keep it simple and answer with nothing but the number.

In [3]: df
Out[3]:
              substance  observed
0            GHMLLFTFFR      5.96
1                HSYITG     0.018
2  WVLDVSFTVVFKMIHGVVSL       3.9

Prompt line: Entry under review: AGNQIRIRASTCASMLGWDL . Reported amyloid nucleation score?
Response line: 3.83

Prompt line: Entry under review: ICVRERNRSYRMPFMMFVVR . Reported amyloid nucleation score?
Response line: -0.017

Prompt line: Entry under review: SVCSSRGDAMSGVLPCAGGL . Reported amyloid nucleation score?
Response line: 0.124

Prompt line: Entry under review: RCLSKVLSLL . Reported amyloid nucleation score?
Response line: -1.72

Prompt line: Entry under review: DILMLNRSVGDIREAISVNG . Reported amyloid nucleation score?
Response line: 0.48

----------
Assay: amyloid nucleation score (Sup35N fusion, yeast selection) (log enrichment); library NNK2; higher = more nucleation; inactive = no reads after selection
Response field class: enum, chosen by comparing amyloid nucleation score against 1 (below -0.7), 2 (-0.7 to below 0.07), 3 (0.07 or more)

For orientation, consider the following solved cases.
In [3]: df
Out[3]:
              substance  answer_label
0  NPHGMLSTRSGSVFMPTIDT             1
1  ESDVSRDRMMALRNMYFCHR             3
2  SMIDGWGRVFHYAVVQISMN             3
3    NTQDFGLCYIFFLQDRCN             2
4  MLRGSRWPSSGTFSCDDSKR             2

Prompt line: Kindly state the category for this substance: AFEPDIK
Response line: 1

Prompt line: Kindly state the category for this substance: FEDFLCFSGMRFVFELCADT
Response line: 1

Prompt line: Kindly state the category for this substance: AYFTYDNANLFDPFTRYTIE
Response line: 3

Prompt line: Kindly state the category for this substance: EELAPSCAEDEILILSMLIN
Response line: 2

Prompt line: Kindly state the category for this substance: FVDYVTCSQYVNIFRDTLGL
Response line: 2

Prompt line: Kindly state the category for this substance: GASVVDKSSRPCGAILEHSG
Response line: 3

Prompt line: Kindly state the category for this substance: IQTNVYWGISCCVSLSLSGL
Response line: 3

Prompt line: Kindly state the category for this substance: LNSANSFWCVRRYCGTAQMQ
Response line: 1

Prompt line: Kindly state the category for this substance: DFLVYCGLLEQLWLLSDAKC
Response line: 2

----------
Experiment: amyloid nucleation score (Sup35N fusion, yeast selection) (log enrichment); library NNK3; higher = more nucleation; inactive = no reads after selection
attribute_measured: amyloid nucleation score

Some substances with recorded amyloid nucleation score:
>>> print(df.to_string())
              substance  observed
0  PSYLKTFRDVLMTVSMYFVC  inactive
1               NAENFYV  inactive
2  ISVLERLGYMFVSRHMLLVW  inactive
3             VFPFIRNKV  inactive
4  VRGTGVVDRLGLGRWDRPEG  inactive

Prompt line: Entry under review: IYRGHVRQKELFCHRREIQW . Reported amyloid nucleation score?
Response line: inactive

Prompt line: Entry under review: FWFLYSSRAQRRRRHWI . Reported amyloid nucleation score?
Response line: inactive

----------
Assay: amyloid nucleation score (Sup35N fusion, yeast selection) (log enrichment); library NNK3; higher = more nucleation; inactive = no reads after selection
attribute_measured: amyloid nucleation score

Some substances with recorded amyloid nucleation score:
>>> df
              substance        attribute_measured  observed
0               CSEVGRS  amyloid nucleation score  inactive
1  RNMGYVTDNYLYTVLYYDCY  amyloid nucleation score  inactive
2  CSVVSWFEAGFRFNDLMNGV  amyloid nucleation score  inactive
3  YVNTDVIVHENVFLLNSHNS  amyloid nucleation score      1.69
4  SLLRFSLGSCWTFSPKGNYL  amyloid nucleation score      1.87
5  SFDSLVISDTVSRDRCLQII  amyloid nucleation score  inactive
6     RPRTRNRRSSISWAKAL  amyloid nucleation score  inactive
7         TSTYANKALTVLE  amyloid nucleation score  inactive
8  YVVHRLSRVFQLANLYYYAK  amyloid nucleation score  inactive
9  WANMQETFWRMWTRPVLTCG  amyloid nucleation score  inactive

Attention now turns to another entry.
Prompt line: Entry under review: KLILFLTRVFRSFQVSWRQF . Reported amyloid nucleation score?
Response line: inactive
